- Tested on: ACHN renal
- assay-method-text: NCI-60 one-dose screen, 48 h (100 = growth as untreated, 0 = no growth, -100 = all killed)
- condition-label: 10 µM unless noted
Compounds without any hit were thinned out: in the full panel of roughly 83,000, 20% have a hit.
Can you tell me growth for the items I'm about to list?
Kindly provide the numeric value in % only, without the unit symbol.

[ask] What growth value was documented for this molecule, `Nc1cc(-c2ccc(Cl)cc2)nn1-c1nnc(/C=C/c2ccco2)c(=O)[nH]1` ?
[reply] 29.4

[ask] What growth value was documented for this molecule, `Cc1cc(NCCCNc2ccnc3cc(Cl)ccc23)nc(Nc2ccc(C(=O)N3CCCCC3)cc2)n1` ?
[reply] 43.2

[ask] What growth value was documented for this molecule, Nc1ncnc2c1N=C(c1ccc(F)cc1)CC(c1cccc(Nc3ccnc4cc(Cl)ccc34)c1)N2 (configuration not stated) ?
[reply] 96.3

[ask] What growth value was documented for this molecule, `COc1cc(Cc2cc(OC)c(O)c(OC)c2)cc(OC)c1O` ?
[reply] 106

[ask] What growth value was documented for this molecule, `COc1ccc(/C=C(\C(=O)NCc2cccnc2)S(=O)(=O)c2ccccc2)cc1OC` ?
[reply] 52.8

[ask] What growth value was documented for this molecule, `Cn1c(=O)c2[nH]c(SC/C(=N/O)c3ccc(Br)cc3)nc2n(C)c1=O` ?
[reply] -58.4

[ask] What growth value was documented for this molecule, `COc1ccc2cc(-c3nc4ccc(C)cn4c3NCc3ccco3)c(=O)[nH]c2c1` ?
[reply] 45.4

[ask] What growth value was documented for this molecule, `N#Cc1c(-c2ccccc2)cc(-c2ccccc2)n(CCCCC(=O)NO)c1=O` ?
[reply] 2.83

[ask] What growth value was documented for this molecule, `Cc1ccc(C(=O)c2ccc(CC(=O)N/N=C/c3cccc(O)c3O)n2C)cc1` ?
[reply] 13.5

[ask] What growth value was documented for this molecule, `C[C@@H]1CN(c2cnc(C(=O)Nc3cc(F)cc4cccnc34)cn2)C[C@H](C)N1` ?
[reply] 32.3

[ask] What growth value was documented for this molecule, Nc1nc(N)c2c(n1)NC(c1cccc(Nc3ccnc4cc(C(F)(F)F)ccc34)c1)CC(c1ccc3c(c1)OCO3)=N2 (configuration not stated) ?
[reply] 102

[ask] What growth value was documented for this molecule, `COc1cc(-c2ccc[nH]2)[nH]c1/C=C1\N=C(C)C(CC(=O)OCC(C)(C)C)=C1C` ?
[reply] -83.2

[ask] What growth value was documented for this molecule, COc1ccc(C2C3=C(COC3=O)N(CCO)c3cc4c(cc32)OCO4)cc1OC (configuration not stated) ?
[reply] 101

[ask] What growth value was documented for this molecule, O=C1CCC(C(=O)N/N=C/c2cc(F)ccc2F)N1 (configuration not stated) ?
[reply] 100

[ask] What growth value was documented for this molecule, CN1C(=O)N2CN3CCCN(C3)CN3C(=S)NC1C23 (configuration not stated) ?
[reply] 118

[ask] What growth value was documented for this molecule, `CCCCCc1ccc(S(=O)(=O)Nc2cc(-c3csc(NC(C)=O)n3)ccc2N2CCN(C)CC2)cc1` ?
[reply] 54.6

[ask] What growth value was documented for this molecule, `O=C(/C=C/c1ccco1)Nc1ncc(Cc2cc(Cl)ccc2Cl)s1` ?
[reply] 35.7

[ask] What growth value was documented for this molecule, CCCCO[C@@H]1C=C2[C@H]3CC(C)(C)C(=O)C[C@]3(C(=O)O[C@@H]3O[C@H](CO[C@@H]4O[C@H](CO)[C@@H](OC5OC(C)C(O)C(O)C5O)[C@H](O)[C@H]4O)[C@@H](O)[C@H](O)[C@H]3O)CC[C@@]2(C)[C@]2(C)CC[C@H]3C(C)(C)C(=O)CC[C@]3(C)[C@@H]12 (some centres not stated) ?
[reply] 22.9

[ask] What growth value was documented for this molecule, `Nc1ccc(Br)cc1C(F)(F)F` ?
[reply] 96.5

[ask] What growth value was documented for this molecule, `CCCn1c(=S)sc2c(NNC(C)=O)nc(C)nc21` ?
[reply] 88.1

[ask] What growth value was documented for this molecule, `Cc1nc(N/N=C/c2cn(-c3ccccc3)nc2-c2cc3ccccc3oc2=O)sc1N=Nc1ccccc1` ?
[reply] 98

[ask] What growth value was documented for this molecule, `N#CSc1c[nH]c2ccc(/C=C/C(=O)/C=C(O)/C=C/c3ccc4[nH]cc(SC#N)c4c3)cc12` ?
[reply] 0.691
